Biological target: Interleukin-8 (IL8, CXCL8), C-terminal His-tagged (Homo sapiens, UniProt P10145 SEQ:1-72)
Test: competition; competition TR-FRET
Conditions: tags: C-terminal 6xHis (Sino Biological)
Experimental: Activity of each of these variants were tested using a time resolved competition TR-FRET assay in which the labeled parent Aptamer 3 was competed with increasing concentrations of unlabeled variants for binding to IL8 (FIG. 14). Briefly, 2-fold dilutions of thermally equilibrated aptamers were made in TR-FRET Buffer (50 mM MOPS, pH 7.4, 125 mM NaCl, 5 mM KCl, 50 μM CHAPS, 0.1 mg/mL BSA, 1 mM CaCl₂, and 1 mM MgCl₂). […] The plate was read on a Biotek CYTATION™ 5 plate reader. […]
measurementLabel: binding result

binder="GCGACGGUAGAUUAUGGGAAGUGUGACCGCGC (ssRNA, 2'-F G, 2'-OMe A/C/U, 5' C6NH2, 3' idT) [Aptamer 152]" result=binds
binder="GAUGACGGUAGAUUUCGGGUAGUGUGACCGCAUC (ssRNA, 2'-F G, 2'-OMe A/C/U, 5' C6NH2, 3' idT) [Aptamer 142]" result=binds
binder="GAUGACGGUAGAUUAUGGGCAGUGUGACCGCAUC (ssRNA, 2'-F G, 2'-OMe A/C/U, 5' C6NH2, 3' idT) [Aptamer 146]" result=binds
binder="GGCGACGGUAGAUUAUGGGAAGUGUGACCGCGCC (ssRNA, 2'-F G, 2'-OMe A/C/U, 5' C6NH2, 3' idT) [Aptamer 151]" result=binds
binder="GAUGACGGUAGAUUAUGGGAAGUGUGACCGCAUC (ssRNA, 2'-F G, 2'-OMe A/C/U, 5' C6NH2, 3' idT) [Aptamer 150]" result=binds
